- assayed-system: T1, PUF4 RNA-binding domain (Saccharomyces cerevisiae, UniProt P25339 537-888)
- T1 sequence: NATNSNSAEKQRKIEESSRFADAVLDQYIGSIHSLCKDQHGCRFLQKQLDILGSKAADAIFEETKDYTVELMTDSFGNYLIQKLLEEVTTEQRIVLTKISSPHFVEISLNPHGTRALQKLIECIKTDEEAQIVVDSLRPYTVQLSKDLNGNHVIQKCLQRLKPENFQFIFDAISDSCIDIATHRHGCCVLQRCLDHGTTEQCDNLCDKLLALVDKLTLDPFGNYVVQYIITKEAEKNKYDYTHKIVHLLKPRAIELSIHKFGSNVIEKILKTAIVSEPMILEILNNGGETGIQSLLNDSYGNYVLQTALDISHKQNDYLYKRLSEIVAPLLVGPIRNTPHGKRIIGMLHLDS
- procedure-details: Mg; RNA-MaP; 20 mM Na-HEPES pH 7.4, 30 mM KOAc, 0.75 mM MgCl2, 0.1% Tween-20, 5% glycerol, 0.1 mg/mL BSA, 2 mM DTT; 25 C; 0.0125-409.6 nM protein
- protocol-conditions: tags: N-His6-TEV cleaved; C-SNAP kept, Cy3B-labelled; label: tethered on chip by stalled RNA polymerase
The entries below are paired with their reported pKd.
Kindly note that pKd refers to -log10 of the concentration in mol/L and answer with the value alone.

Here is how some binders turned out for pKd.
Ib_S4_P5E.1_K5.1_C5.1_H5.1_A5.1_F5.1_[T9A]_[A10T]_T5.1 (ssRNA) RNA: UUUGACAACUGAUCGUUCUUUCUUGUAUUAUAUUUCUUUCUCGAUCAGUUGUCUUU: 8.93
UCUCUUUGUAAUUUUUCUCUU (ssRNA) [Ic_S1_P4E.1_K4.1_C4.1_H4.1_A4.1_[T5A]_[A6T]_F4.1_[A9T]_T4.1]: 7.46
UCUCUUGUUGUAUAUUAUUUCUCUU (ssRNA) [Id_ii_S1_P4E.2_K4.1_C4.2_[C-2G]_H4.1_A4.1_F4.1_T4.2_[G10T]]: 9.12

# next binder below
Query string: pKd for Id_ii_S4_P5E.3_K5.2_C5.2_H5.2_A5.1_F5.1_T5.2_[T11C]_[A12G] (ssRNA) RNA: UUUGACAACUGAUCGUUCUUUCUCUUAUAUUAUUACGUUCUUUCUCGAUCAGUUGUCUUU ?
Result string: 6.33
